Entries and their TGI values follow.
system: DU-145 prostate; test: NCI tumour cell line growth inhibition, 48 h

| lineNotation | testedSystem | TGI |
| --- | --- | --- |
| O=C(O)c1cc(-c2ccc3cc4c(cc3c2)OCO4)nc2ccccc12 | DU-145 prostate | > 100 µM |
| Nc1nc(Cl)cc(NCC2(O)CCC2)n1 | DU-145 prostate | > 100 µM |
| c1ccc2c(CSCc3cccc4ccccc34)cccc2c1 | DU-145 prostate | > 100 µM |

* * *

tested on: SK-OV-3 ovarian; test: NCI tumour cell line growth inhibition, 48 h
parameterMeasured: TGI

| compound | observedResult |
| --- | --- |
| Cc1ccc(O)c(Cc2nc3ccccc3nc2-c2cccc(Cl)c2)c1 | > 100 µM |
| Cc1ccc([N+](=O)[O-])cc1S(=O)(=O)Nc1ccc(C2=NN(S(=O)(=O)c3cc([N+](=O)[O-])ccc3C)C(c3ccccc3)C2)cc1 (centres undefined) | > 100 µM |
| CNC(=O)C(C)NC(=O)C(Cc1ccccc1)NC(=O)c1ccccc1 (centres undefined) | > 100 µM |
| COC(=O)c1c([N+](=O)[O-])ncn1[C@H]1OC[C@@H](OC(C)=O)[C@@H](OC(C)=O)[C@@H]1OC(C)=O | > 100 µM |
| Clc1c(Cl)[n+](Cc2ccc3ccccc3c2)cn1Cc1ccc2ccccc2c1 | 3.75 µM |
| O=c1oc2ccc(I)cc2c(=O)n1-c1ccc(Br)cc1F | 2.97 µM |
| Cc1[nH]c(=O)nc2nc3cc(Cl)cc(Cl)c3c(NC(C)(CO)CO)c12 | > 100 µM |
| O=C1C=C(Nc2ccc(Cl)cc2Cl)c2ccccc2C1=O | > 100 µM |
| O=C(Nc1ccc(C(F)(F)F)cc1)NC(F)(F)F | > 100 µM |
